Test system: MS2 coat protein
Assay: apparent KD of MS2 coat protein; designed switch direction (-1 OFF switch, 1 ON switch): 1; higher = weaker reporter binding
Details: input ligand: none
resultType: apparent KD of MS2 coat protein (nM)
Provide only the numeric value, understood in nM.

Completed entries (count: 2):
# seqString, apparent KD of MS2 coat protein, nM
rows = [
    ("CGUUCUUACUCAGGACGGAGAGUAGAGGAACAUGAGGAUCACCCAUGUAUGAGCUUUUUGCUCGUGAUUAACAGUAG [JR_SHM208a_Sub013] (Eterna round: R96, puzzle: Sensor for hsa-mir-208a)", 86.8),
    ("CUGAGCGAUCAAGGAUAUCACGUCGAAUAGACGUGAGAAGGUGAUCAUAACAUGAGGAUCACCCAUGUAUUACAUGAAGCUCAG [SSNG1/2-A1] (Eterna round: R96, puzzle: Same State NG 1)", 2240),
]

Query sequence follows.
Which measured apparent KD of MS2 coat protein value corresponds to GGUGCCAAUAAAGCCUACAUGAGGAUCACCCAUGUAUGUAGGCAGGAUAUCGUUUGCAAAGCAAACGAGAAGGGCCUAGGCACC [Mat - Same State NG 3 - JL Mod - D61] (Eterna round: R96, puzzle: Same State NG 3) ?
31.5

----------
Tested on: MS2 coat protein
Test: apparent KD of MS2 coat protein, switch OFF state (with FMN for OFF switches, without FMN for ON switches); designed switch direction (-1 OFF switch, 1 ON switch): -1; higher = weaker reporter binding
Conditions: FMN input: 0 or 200 uM; Eterna round: R93 (includes R88 designs)
Label scheme for apparent KD of MS2 coat protein: lower than 40 nM is label 0, 40 nM and above is label 1.

Example entries and their recorded answers appear below.
# seqString, targetOfAssay, answerLabel
data = [
    ("AACGUACAUGAGGAUCACCCAUGUUAGGAUAUGCCGGGUUAGAGCCAACUAAAAAACCGUAGAAGGGACGAAAA [Bilbo Confounded 11 - Jieux - Exclusion 1]", "MS2 coat protein", "label 0"),
    ("AAAAUACAUGAGGAUCACCCAUGUGAGGAUAUCUUAAAGGGAAUAAAAUAACUCAAAAAGAGAAGGCACAAAAA [Ex 1 May 29]", "MS2 coat protein", "label 1"),
    ("GAAAAGUUAGGAUAUACAGAUAAAAAAACGAAAAAAAAUCUGUAGAAGGAACAUGAGGAUCACCCAUGUAAAAA [Mat - Exclusion 4 - Mayanna - D104]", "MS2 coat protein", "label 0"),
    ("AAGAAUGCAGGAUAUACAAGAAAGAAAGAAAAGAAAAGAAAACAUGAGGAUCACCCAUGUAGAAGGGCAUAGAA [EteRNA is fun!]", "MS2 coat protein", "label 0"),
    ("AAAAAGGUAGGAUAUACAUGAGGAUCACCCAUGUAAAAAAAUGGAGAAAAAAACAAUUGUAGAAGGGCCAAAAA [Ex3 Malc#7]", "MS2 coat protein", "label 1"),
]

Could you verify whether the entry AAAAAGUCAGGAUAUACAGAAAAAAAAACGAAAAAAAAUCUGUAGAAGGGACAUGAGGAUCACCCAUGUAAAAA [Ex 4 May 12] shows apparent KD of MS2 coat protein of no less than 40 nM?
label 0

Is the recorded value of apparent KD of MS2 coat protein equal to or greater than 40 nM for this sequence? AGGGAACAUGAGGAUCACCCAUGUGAGGAUAUGCUAUGGAAAAUAAAAAUAAAACAUAGCAGAAGGCAUAAAAA [Denovo 10]
label 1

Answer whether apparent KD of MS2 coat protein of AGGAAACAUGAGGAUCACCCAUGUAAGGAUAUGAACGAAAAUAAAUAAAAAUAAAAGUUCAGAAGGUACAAAAA [66%, Wbt, 6] is greater than or equal to 40 nM.
label 1

Data credit: the supplement of paper PMC9170038
